Listing of recorded pIC50 by entry.
Target: human SCD1 (Homo sapiens (Human), UniProt O00767)
Sequence (O00767 whole entry): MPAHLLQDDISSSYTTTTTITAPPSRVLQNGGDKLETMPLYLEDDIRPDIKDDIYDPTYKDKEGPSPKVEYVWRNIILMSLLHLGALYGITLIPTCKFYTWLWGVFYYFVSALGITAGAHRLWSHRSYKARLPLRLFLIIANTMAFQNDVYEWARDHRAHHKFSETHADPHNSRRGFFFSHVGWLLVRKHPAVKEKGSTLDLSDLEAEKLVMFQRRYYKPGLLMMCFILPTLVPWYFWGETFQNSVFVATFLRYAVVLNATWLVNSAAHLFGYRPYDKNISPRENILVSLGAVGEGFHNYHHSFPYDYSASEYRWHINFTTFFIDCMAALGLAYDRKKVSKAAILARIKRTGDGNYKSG
Assay: Yeast growth assay, strain expressing human SCD1 as the sole desaturase (reduced growth as surrogate for SCD inhibition)
Conditions: yeast with OLE1 deleted expressing human SCD1 from a plasmid; growth read as OD600 after 40 h at 30° C.; top drug concentration 33.3 μM
FYI, pIC50 means -log10 of a concentration in mol per litre.

O=C(Nc1cnn(Cc2ccccc2)c1)c1cc(-c2ccncn2)on1 [Compound 148]	5.40

Here is another molecule to look at.
Requested field: pIC50. Item: COC1(c2cc(C(=O)Nc3cnn(Cc4cccc(F)c4)c3)no2)CCC1 [Compound 115]
6.47

###

Biological target: human SCD5 (Homo sapiens (Human), UniProt Q86SK9)
Sequence (Q86SK9 whole entry): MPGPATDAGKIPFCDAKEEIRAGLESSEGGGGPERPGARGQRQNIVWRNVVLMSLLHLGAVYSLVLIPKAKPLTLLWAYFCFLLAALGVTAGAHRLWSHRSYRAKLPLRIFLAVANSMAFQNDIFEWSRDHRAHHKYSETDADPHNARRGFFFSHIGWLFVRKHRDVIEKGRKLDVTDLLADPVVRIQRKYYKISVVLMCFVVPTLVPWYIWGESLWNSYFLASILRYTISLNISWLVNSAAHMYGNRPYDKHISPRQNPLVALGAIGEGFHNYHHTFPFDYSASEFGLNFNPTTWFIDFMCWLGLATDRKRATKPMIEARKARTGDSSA
Test: Yeast growth assay, strain expressing human SCD5 as the sole desaturase (reduced growth as surrogate for SCD inhibition)
Details: yeast with OLE1 deleted expressing human SCD5 from a plasmid; growth read as OD600 after 40 h at 30° C.; top drug concentration 33.3 μM
Experimental: Strains expressing SCD1 or SCD5 as the sole desaturase, the human SCD1 and SCD5 genes were used to evaluate inhibition of SCD1/SCD5 using reduced growth as a surrogate for SCD inhibition. […] After yeast delivery, assay plates were incubated under humidified conditions at 30° C. for 40 h. Yeast growth was monitored by reading the OD600 of each well using a microplate reader (Perkin Elmer EnVision™).
pIC50: −log10 of the molar value.
ASSAY METRIC: pIC50

Fill blank: measured pIC50 of the molecule Cc1nn(C)c2cc(-c3cc(CN4C(=O)OCC4c4ccccc4)no3)ccc12 (stereo not drawn) is ____.
4.41

Record request: pIC50 value, item N#Cc1ccc(-c2cc(C(=O)N3CCC[C@H]3c3ccccc3)no2)cc1
< 4.35

Data request, read-out pIC50, for O=C(Nc1cnn(Cc2cc(F)ccc2C(F)(F)F)c1)c1cc(-c2ccccn2)on1
< 4.35

So what does the record say about pIC50 for COc1ccc(C2CCCN2C(=O)c2cc(-c3ccccc3)on2)cc1 (stereo not drawn) ?
< 4.35

Requested read-out: pIC50. Entry: O=C(c1cc(-c2ccc3c(c2)OCO3)on1)N1CC(Nc2ccccc2)C1
< 4.35

pIC50 lookup needed for CC(C)c1cc(C(=O)Nc2cnn(CC34CCC(CC3)CC4)c2)no1 , thanks.
< 4.35

Which pIC50 is reported for this molecule? O=C(Nc1cnn(Cc2cccc(F)c2)c1)c1cc(-c2ccon2)on1
< 4.35

Query: pIC50; subject: O=C(c1cc(-c2ccc(F)cn2)on1)N1CC(c2ccccc2)C1
5.82

Find the recorded pIC50 belonging to C=C(C)c1cc(C(=O)Nc2cnn(Cc3ccccc3)c2)on1 and report it.
5.15

Entry O=C(c1cc(-c2ccc3c(c2)OCO3)on1)N1CCCC1c1ccccn1 (stereo not drawn) : reported pIC50 = ?
< 4.35

Tell me the measured pIC50 of Cn1cccc(-c2cc(C(=O)Nc3cnn(Cc4cccc(F)c4)c3)no2)c1=O , please.
< 4.35

# input molecule: O=C(c1cc(-c2ccc3c(c2)OCO3)on1)N1CCC1c1ccccc1Cl (stereo not drawn) ; wanted: its pIC50
< 4.35

Which pIC50 reading was recorded for the molecule O=C(Nc1cnn(Cc2ccccc2)c1)c1cc(-c2ccccc2)no1 ?
< 4.35

Bench note: what pIC50 did O=C(c1cc(-c2ccccc2)on1)N1CCC(Oc2ccccc2)CC1 show?
5.38

Looking for the measured pIC50 of CNC(=O)c1cccc(-c2cc(C(=O)N3CCC(c4ccccc4)CC3)no2)c1 , can you help?
< 4.35

// returns reported pIC50 for input O=C(c1cc(-c2ccc3c(c2)OCO3)on1)N1CCN(c2ccc(F)cc2)CC1
< 4.35

Query (molecule): N#Cc1cc(F)cc(Cn2cc(NC(=O)c3cc(-c4ccccc4)on3)cn2)c1 ; field requested: pIC50
< 4.35

Param item = Cc1nnc(-c2cc(C(=O)Nc3cnn(Cc4cccc(F)c4)c3)no2)s1 ; retrieve measured pIC50.
< 4.35

Which pIC50 is reported for this molecule? Nc1cc(C(=O)Nc2cnn(Cc3ccccc3)c2)no1
< 4.35

pIC50 for O=C(c1cc(-c2ccc3c(c2)OCO3)on1)N1CCCc2ccccc21 ?
< 4.35

Bench note: what pIC50 did CN1CCC(C2CCCN2C(=O)c2cc(-c3ccc4c(c3)OCO4)on2)CC1 (stereo not drawn) show?
< 4.35

// query pIC50 value for entry COc1ccc(-c2cc(NC(=O)[C@@H]3CCCN3c3ccccc3)on2)cc1
< 4.35

###

Molecular target: human SCD1 (Homo sapiens (Human), UniProt O00767)
Assay: Yeast growth assay, strain expressing human SCD1 as the sole desaturase (reduced growth as surrogate for SCD inhibition)
Conditions: yeast with OLE1 deleted expressing human SCD1 from a plasmid; growth read as OD600 after 40 h at 30° C.; top drug concentration 33.3 μM
Listed next: entries and their corresponding IC50.

N#Cc1ccc(-c2cc(C(=O)Nc3cnn(Cc4cc(F)ccc4C(F)(F)F)c3)no2)nc1 [Compound 99]	> 45 µM
COc1cc(C2CCCN2C(=O)c2cc(-c3ccc4c(c3)OCO4)on2)on1 (stereo not drawn) [Compound 411]	30 µM
O=C(c1cc(-c2ccc3c(c2)OCO3)on1)N1CCCC1c1ccccc1 (stereo not drawn) [Compound 354]	> 45 µM
Cc1nn(C)c2cc(-c3cc(C(=O)N4CCN(c5ccccc5)CC4)no3)ccc12 [Compound 278]	> 45 µM
Cn1c(=O)oc2ccc(-c3cc(C(=O)N4CCC[C@H]4c4ccccc4)no3)cc21 [Compound 444]	> 45 µM
O=C(c1cc(-c2ccco2)on1)N1CC(Cc2ccccc2)C1 [Compound 205]	0.23 µM

What does the data say about its IC50? Entry: O=C(Nc1cc(-c2ccco2)on1)c1cnn(Cc2ccc(Cl)c(Cl)c2)c1 [Compound 59]
> 45 µM

###

Molecular target: human SCD5 (Homo sapiens (Human), UniProt Q86SK9)
Experiment: Yeast growth assay, strain expressing human SCD5 as the sole desaturase (reduced growth as surrogate for SCD inhibition)
Conditions: yeast with OLE1 deleted expressing human SCD5 from a plasmid; growth read as OD600 after 40 h at 30° C.; top drug concentration 33.3 μM
pIC50: −log10 of the molar value.
The following molecules are shown together with reported pIC50 values.

Check out these entries, answers already filled in.
NC(=O)c1cc(C(=O)Nc2cnn(Cc3cccc(F)c3)c2)no1 [Compound 162]	< 4.35
N#Cc1ccc(Cn2cc(NC(=O)c3cc(-c4ccccc4)on3)cn2)cc1 [Compound 42]	< 4.35
CC(C)c1cc(C(=O)N2CC(c3ccccc3)C2)no1 [Compound 250]	< 4.35

Could you share what pIC50 was measured for Cc1cnc(-c2cc(C(=O)Nc3cnn(Cc4ccccc4)c3)no2)s1 [Compound 142] , tested on human SCD5 (Homo sapiens (Human), UniProt Q86SK9)?
< 4.35

Any idea what pIC50 came out for O=C(c1cc(-c2cccnc2)on1)N1CC(c2ccccc2)C1 [Compound 234, trifluoroacetic acid] on human SCD5 (Homo sapiens (Human), UniProt Q86SK9)?
5.29

Checklist item: pIC50 tested on human SCD5 (Homo sapiens (Human), UniProt Q86SK9), entry O=C(c1cc(-c2ccc3c(c2)OCO3)on1)N1CCCC1c1ncccc1F (centres unmarked) [Compound 457] , value?
< 4.35

###

Catalogue of IC50 readings, one per entry.
Biological target: UniProt Q86SK9
Test: Yeast growth assay, strain expressing human SCD5 as the sole desaturase (reduced growth as surrogate for SCD inhibition)
Details: yeast with OLE1 deleted expressing human SCD5 from a plasmid; growth read as OD600 after 40 h at 30° C.; top drug concentration 33.3 μM

N#Cc1ccc(Cn2cc(NC(=O)c3cc(-c4ccccc4)on3)cn2)nc1	> 45 µM
O=C(Nc1cnn(Cc2ccccc2Cl)c1)c1cc(-c2cccc3cnn(C4COC4)c23)on1	> 45 µM
O=C(c1cc(-c2ccc3c(c2)OCO3)on1)N1CC(Oc2ccccc2)C1	> 45 µM

Which IC50 is listed for N#Cc1ccc(CN(C(=O)c2cc(-c3ccccc3)on2)c2cnn(Cc3ccc(C#N)cc3)c2)cc1 ?
> 45 µM

For O=C(c1cc(-c2ccc3c(c2)OCO3)on1)N1CCC1c1ccccc1F (stereo not drawn) , what is its reported IC50?
> 45 µM

State the recorded IC50 for this entry: CC(C)(C)OC(=O)n1cc(NC(=O)c2cc(-c3ccco3)on2)cn1
> 45 µM

What IC50 value was documented for this compound, Cn1ccc(-c2cc(C(=O)N3CCC[C@H]3c3ccccc3)no2)cc1=O ?
> 45 µM

Value lookup for IC50; key = O=C(Nc1cnn(Cc2ccc(F)c(F)c2)c1)c1cc(-c2ccccn2)on1
> 45 µM

Consider the compound O=C(Nc1cnn(Cc2cccc(F)c2)c1)c1cc(-c2ccns2)on1 and give its measured IC50.
1.6 µM

Which IC50 value is on record for O=C(Nc1noc(Cc2ccccc2)n1)c1cc(-c2ccccc2)on1 ?
> 45 µM

Request the reported IC50 associated with CC(C)c1cc(C(=O)Nc2cc3ccccn3n2)no1
> 45 µM
